// data source = patent US4808586A

Target: Neutrophil Lipoxygenase (Cavia porcellus)
Construct: endogenous in cells; host or cells: guinea pig peritoneal neutrophils
Sequence (A0A286X958 1-674): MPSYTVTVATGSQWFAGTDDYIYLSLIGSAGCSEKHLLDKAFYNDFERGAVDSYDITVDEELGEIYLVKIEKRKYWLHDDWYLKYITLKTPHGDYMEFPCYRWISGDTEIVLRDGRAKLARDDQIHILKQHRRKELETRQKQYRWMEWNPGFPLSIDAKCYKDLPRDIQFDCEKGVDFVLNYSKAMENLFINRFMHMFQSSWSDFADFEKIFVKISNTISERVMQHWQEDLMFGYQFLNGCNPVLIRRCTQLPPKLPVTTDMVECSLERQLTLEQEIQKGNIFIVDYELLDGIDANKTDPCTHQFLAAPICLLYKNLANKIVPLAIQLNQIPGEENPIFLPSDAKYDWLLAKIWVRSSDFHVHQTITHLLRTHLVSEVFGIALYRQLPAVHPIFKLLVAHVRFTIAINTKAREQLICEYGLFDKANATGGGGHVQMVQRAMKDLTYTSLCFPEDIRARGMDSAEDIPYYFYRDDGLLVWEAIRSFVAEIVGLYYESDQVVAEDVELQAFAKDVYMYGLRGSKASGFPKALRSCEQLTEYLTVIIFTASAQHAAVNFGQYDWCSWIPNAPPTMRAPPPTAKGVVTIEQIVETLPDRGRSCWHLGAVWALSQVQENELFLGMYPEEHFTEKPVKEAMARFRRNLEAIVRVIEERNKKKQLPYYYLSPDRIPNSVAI
Assay: Inhibition of neutrophil lipoxygenase (release and biosynthesis of LTB4 and 5-HETE) in guinea pig peritoneal neutrophils
Format: cell-based
Details: 10 μg/ml, 100 μM arachidonic acid and 20 μM A23187, the lower the percentage, the more active, read-out: 5-HETE, % of Control
Experimental: The ability of these compounds to inhibit lipoxygenase activity in terms of the suppression of the release and biosynthesis of leukotriene B4 (LTB4) and 5-hydroxyeicosatetraenoic acid (5-HETE) was measured as follows. In this assay 3×10^7 peritoneal neutrophils derived from guinea pigs were incubated at 37° C. in Dulbeccos buffer containing 50 mM tris buffer (pH 7.4). […] LTB4 and 5-HETE were quantitated by comparison with the control and results were expressed as a percent of control.
assay_endpoint: remaining activity at 10 µg/mL (%)
Please state the figure in %; there is no need to write the unit.

| sample_smiles | number |
| --- | --- |
| O=CN1CCN(C2=C(Cl)C(=O)c3nsnc3C2=O)CC1 | 64 |
| COc1ccc(OC)c2[nH]c(-c3ccccc3)nc12 | 78.2 |
| CCOC(=O)N1CCN(C2=C(Cl)C(=O)c3nsnc3C2=O)CC1 | 40.5 |

Entry COc1ccc(OC)c2[nH]c(-c3ccc(Cl)cc3)nc12 , remaining activity at 10 µg/mL reported as 77

Entry Oc1ccc(O)c2[nH]c(-c3ccccc3)nc12 , remaining activity at 10 µg/mL reported as 32.1

Entry O=C1C(Cl)=C(N2CCN(c3nc4ccccc4o3)CC2)C(=O)c2nsnc21 , remaining activity at 10 µg/mL reported as 20.8

Entry O=C1C(Cl)=C(N2CCN(c3cccc(C(F)(F)F)c3)CC2)C(=O)c2nsnc21 , remaining activity at 10 µg/mL reported as 15.2
